# Target: ATP-dependent Clp protease proteolytic subunit, mitochondrial (Homo sapiens)
# Sequence (Q16740 whole entry): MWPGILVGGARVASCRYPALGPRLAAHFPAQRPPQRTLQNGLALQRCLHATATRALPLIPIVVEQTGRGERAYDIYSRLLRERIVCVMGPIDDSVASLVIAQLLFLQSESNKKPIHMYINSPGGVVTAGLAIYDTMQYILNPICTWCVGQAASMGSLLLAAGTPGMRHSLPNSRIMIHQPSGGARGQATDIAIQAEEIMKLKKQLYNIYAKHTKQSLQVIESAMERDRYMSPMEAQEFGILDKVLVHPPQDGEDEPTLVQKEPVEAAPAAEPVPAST
# Assay Protocol: Agonist activity at human CLpP by measuring alpha-casein hydrolysis using alpha-casein as substrate by FITC staining based assay
Exercise: state measured EC50 for each of the compounds provided.
// units = nM; emit number, no label

Need EC50 of CC[C@H](C)[C@H]1C(=O)N(Cc2cccc3ccccc23)C[C@@H]2N(C(=O)NCc3ccc(Br)cc3)CCC(=O)N12 , thanks.
1190

Need EC50 of CC[C@H](C)[C@H]1C(=O)N(Cc2ccc(OC)c3ccccc23)C[C@@H]2N(C(=O)NCc3ccc(Br)cc3)CCC(=O)N12 , thanks.
540
